# Assay text: E. coli acrAB mutant growth effects, primary screen, E. coli filamentation inducers, strain DRC39, OD650, 48 h (AID 1179);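 also: screen aims at cell division blockers that make cells filament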
# Applied conditions: E. coli DRC39 delta-acrAB growth, higher = more signal, called active from +8 up or from −8 down
Ranges used to classify z-score: low (below 0.4), medium (0.4 to below 1), high (1 or more)

Given O=C(O)[C@H]1C[C@H]2C(=O)NCC(=O)N2[C@H]1c1cccc(OCCO)c1 , name the class its z-score places it in. low

* * *

Examples of compounds with documented z-score follow.
# Assay text: PSAC antagonists in infected red cells, primary screen, cell-based, P. falciparum Indochina, OD700, 18 h (AID 1157)
# Applied conditions: P. falciparum Indochina infected erythrocytes, osmotic lysis OD700, 18 h; higher = more signal, called active from +8 up or from −8 down
Could you keep your reply to the number by itself?

Compound	z-score
C=CCC(OC(C)=O)[C@@H]1[C@@H](N(Cc2ccc(-c3cccc(C(F)(F)F)c3)o2)C(=O)c2ccc(-c3ccccc3)cc2)c2cc(OCCCO)ccc2N1C(=O)Cc1ccc(OC)cc1 (some centres undefined)	-0.0843
CCCNC(=O)[C@@]1(Sc2ccc(C)cc2)CC(=O)N(Cc2cc(C(F)(F)F)cc(C(F)(F)F)c2)[C@@H]1c1ccc(CO)cc1I	-0.191
CCCCC(=C=CC[C@H](O)c1cccc(OCCO)c1)CCO	0.774

Here's the next entry for you.
Field z-score (entry O=C(NC1CC1)[C@@H]1c2ccccc2C(=O)N(Cc2ccccc2C(F)(F)F)[C@H]1c1ccc(CO)cc1 ) reads 0.106

* * *

# System: wheat germ agglutinin (Triticum aestivum), Alexa647-labelled
# Assay text: wheat germ agglutinin binders on compound microarrays, profiling panel, artefact control for SMM control-protein annotation, biochemical, small-molecule microarray, 635/667 nm fluorescence (AID 1140);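 also: score merges 667 nm feature emission with signal to noise over triplicate slides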
# Applied conditions: WGA-A647 binding, 635 nm fluorescence, higher = more signal
Measured quantity: composite z-score
Could you keep your reply to the number by itself?

// known answers, use as guide
Compound	Measured quantity	Result number
Cc1ccc(N2C(=O)c3ccccc3[C@](C)(C(=O)NCC(F)(F)F)[C@@H]2c2ccc(CO)cc2)nc1	composite z-score	-0.188
O=C(NC1CC1)[C@@H]1c2ccccc2C(=O)N(Cc2ccccc2C(F)(F)F)[C@H]1c1ccc(CO)cc1	composite z-score	0.527
NCCCCCNC(=O)[C@H]1C[C@H]2C(=O)NCC(=O)N2[C@H]1c1ccc(O)cc1	composite z-score	1.3
COCCOC(=O)N1C(=O)[C@@]2(c3cc(C#CCNC(N)=O)ccc31)[C@H](C(=O)NC[C@H](O)c1ccccc1)[C@H]1C(=O)O[C@H](c3ccccc3)[C@H](c3ccccc3)N1[C@@H]2c1ccc(O)cc1	composite z-score	0.436
COc1ccc([Si](C)(C)[C@H]2[C@H](CCO)O[C@@]3(C(=O)N(Cc4ccc(N5C(=O)c6cccc7cccc5c67)cc4)c4ccccc43)[C@@H]2C)cc1	composite z-score	0.796

Here's the next entry for you.
Field composite z-score (entry C=CCOC(=O)[C@H]1[C@@H]2C(=O)O[C@@H](c3ccccc3)[C@@H](c3ccccc3)N2[C@@H](c2ccc(OCCOC(=O)[C@H]3C[C@H]4C(=O)N5CCC[C@H]5C(=O)N4[C@H]3c3cccc(OCCO)c3)cc2)[C@]12C(=O)Nc1ccccc12 ) reads 0.828

* * *

# Assay text: inhibitors of hydroxyurea-induced Chk1 phosphorylation, primary screen, imaging, HeLa, phospho-Chk1 antibody, percent positive cells (AID 1186)
# Applied conditions: hydroxyurea-induced phospho-Chk1 immunofluorescence imaging, higher = more signal
z-score of -0.08 or higher: Met. Under -0.08: Not met.

Is z-score for CCCNC(=O)[C@@]1(Sc2ccc(C)cc2)CC(=O)N(Cc2cc(C(F)(F)F)cc(C(F)(F)F)c2)[C@@H]1c1ccc(CO)cc1I at or above -0.08? Not met

Is z-score for O=C1c2ccccc2[C@](Cc2ccccc2I)(C(=O)O)[C@H](c2ccc(CO)cc2)N1Cc1ccccc1Cl at or above -0.08? Not met

Is z-score for C=CCN1C(=O)[C@@]2(O[C@@H](CCO)[C@H]([Si](C)(C)c3ccc(OC)cc3)[C@H]2C)c2cc(N3C(=O)c4cccc5cccc3c45)ccc21 at or above -0.08? Not met

Is z-score for C=CCC(OC(C)=O)[C@@H]1[C@@H](N(Cc2ccc(-c3cccc(C(F)(F)F)c3)o2)C(=O)c2ccc(-c3ccccc3)cc2)c2cc(OCCCO)ccc2N1C(=O)Cc1ccc(OC)cc1 (some centres not stated) at or above -0.08? Not met

Is z-score for C=CCNC(=O)[C@@H]1[C@H]2C(=O)O[C@H](c3ccccc3)[C@H](c3ccccc3)N2[C@H](c2ccc(O)cc2)[C@@]12C(=O)Nc1ccccc12 at or above -0.08? Met

Is z-score for NCCCCCNC(=O)[C@H]1C[C@H]2C(=O)NCC(=O)N2[C@H]1c1ccc(O)cc1 at or above -0.08? Met

* * *

# Tgt: Luciferin 4-monooxygenase (Photinus pyralis) (UniProt P08659)
# Sequence (P08659 whole entry, looked up): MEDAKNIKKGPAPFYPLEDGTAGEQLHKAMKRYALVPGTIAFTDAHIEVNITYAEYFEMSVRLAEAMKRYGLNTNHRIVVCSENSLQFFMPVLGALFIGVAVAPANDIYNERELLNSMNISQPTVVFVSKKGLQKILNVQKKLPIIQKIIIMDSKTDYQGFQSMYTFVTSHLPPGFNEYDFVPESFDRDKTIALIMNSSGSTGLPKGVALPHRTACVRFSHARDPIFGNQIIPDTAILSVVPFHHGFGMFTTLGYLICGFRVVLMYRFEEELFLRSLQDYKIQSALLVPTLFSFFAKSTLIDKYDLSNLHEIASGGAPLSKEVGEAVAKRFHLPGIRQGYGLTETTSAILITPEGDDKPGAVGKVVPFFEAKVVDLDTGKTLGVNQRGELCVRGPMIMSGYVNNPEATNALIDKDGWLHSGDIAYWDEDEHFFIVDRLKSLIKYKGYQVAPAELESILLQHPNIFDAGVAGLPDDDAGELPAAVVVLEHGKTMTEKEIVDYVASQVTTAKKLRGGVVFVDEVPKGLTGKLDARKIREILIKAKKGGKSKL
# Assay text: firefly luciferase enzyme inhibitors, primary screen, biochemical, luminescence, purified enzyme, 2006 set (AID 1141);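 also: cell-free assay with purified firefly luciferase at 100 ng per well in PBS; test concentration not given here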
# Applied conditions: SteadyGlo luminescence, 30 min, higher = more signal, called active from +8 up or from −8 down
Examples of molecules with documented z-score follow.
Could you keep your reply to the number by itself?

// known answers, use as guide
Smiles record	z-score
CC(C)C(=C=CC[C@H](O)c1ccc(OCCO)cc1)C[C@H](O)COCc1ccccc1	-2.55
O=C(O)[C@H]1C[C@H]2C(=O)NCC(=O)N2[C@H]1c1cccc(OCCO)c1	-1.6

Field z-score (entry CC(C)NC(=O)[C@@H]1c2ccccc2C(=O)N(Cc2cc(F)cc(C(F)(F)F)c2)[C@H]1c1ccc(CO)cc1 ) reads -0.758

Field z-score (entry CCCCC(=C=CC[C@H](O)c1cccc(OCCO)c1)CCO ) reads -0.835

Field z-score (entry COCCCNC(=O)[C@@]1(CCS(=O)(=O)c2ccccc2)N=C(c2ccc(OCCCO)cc2)O[C@H]1c1ccccc1CN=[N+]=[N-] ) reads -0.888

Field z-score (entry O=C(NO)[C@]1(Cc2ccccc2)N=C(c2ccc(OCCCO)cc2)O[C@@H]1c1ccccc1 ) reads -2.34

Field z-score (entry CC(C)(C)OC(=O)CC[C@]1(C(=O)NCc2ccccc2)COC(c2ccc(OCCCO)cc2)=N1 ) reads -0.714

Field z-score (entry COc1ccc(C#Cc2ccc3c(c2)[C@]2(C(=O)N3)[C@H](c3ccc(O)cc3)N3[C@H](c4ccccc4)[C@H](c4ccccc4)OC(=O)[C@H]3[C@@H]2C(=O)N2CCN(c3ncccn3)CC2)cc1 ) reads -1.27

* * *

# Tgt: Luciferin 4-monooxygenase (Photinus pyralis) (UniProt P08659)
# Assay text: firefly luciferase enzyme inhibitors, primary screen, biochemical, luminescence, purified enzyme, 2006 set (AID 1141);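 also: cell-free assay with purified firefly luciferase at 100 ng per well in PBS; test concentration not given here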
# Applied conditions: SteadyGlo luminescence, 30 min, called active from +8 up or from −8 down
Active and inactive are the calls of the source.
I would appreciate it if you answered using one of these outcomes: active, inactive

> print(dat)
                              smiles.record                                       tgt  label.value
1  C=C(COC)/C(=C/C[C@H](OC(C)=O)c1ccc(CO)o1)c1cnc2ccccc2c1  Luciferin 4-monooxygenase (Photinus pyralis) (UniProt P08659)     inactive
2  C=C(COC)C(=O)CC[C@@H](OC(=O)c1ccccc1-c1ccccc1C(=O)O)c1cccc(OCCO)c1  Luciferin 4-monooxygenase (Photinus pyralis) (UniProt P08659)     inactive
3  CCOC(=O)C[C@H]1[C@H](OC(=O)c2ccc(C(=O)c3ccccc3)cc2)[C@@H](NC(=O)Cc2ccc(OC)cc2)c2cc(OCCCO)ccc2N1C(=O)Cc1ccc(OC)cc1  Luciferin 4-monooxygenase (Photinus pyralis) (UniProt P08659)     inactive
4  C=CCNC(=O)[C@H]1[C@@H]2C(=O)O[C@@H](c3ccccc3)[C@@H](c3ccccc3)N2[C@@H](c2ccc(OCCO)cc2)[C@]12C(=O)Nc1ccc(C#CCCO)cc12  Luciferin 4-monooxygenase (Photinus pyralis) (UniProt P08659)     inactive
5  CCCNC(=O)[C@@H]1c2ccccc2C(=O)N(Cc2cc(C(F)(F)F)cc(C(F)(F)F)c2)[C@H]1c1ccc(CO)cc1  Luciferin 4-monooxygenase (Photinus pyralis) (UniProt P08659)     inactive
6  C=CCN1C(=O)[C@@]2(O[C@@H](CCn3cc(CCO)nn3)[C@H]([Si](C)(C)c3ccc(OC)cc3)[C@H]2C)c2cc(N3C(=O)c4cccc5cccc3c45)ccc21  Luciferin 4-monooxygenase (Photinus pyralis) (UniProt P08659)     inactive

Hello, I am checking results. What call was entered for C=C(/C(=C/C[C@H](OC(C)=O)c1cccc(OCCO)c1)c1cc(C(=O)OC)ccc1OC)C(C)C ? inactive

Hello, I am checking results. What call was entered for C=C[C@H](OC)[C@@H](OC(=O)Nc1ccc(OC)cc1)c1ccc(OC)c(O)c1 ? inactive

Hello, I am checking results. What call was entered for COCCCN1C(=O)[C@@]2(Cc3ccccc31)c1ccccc1C(=O)N(Cc1ccccc1Cl)[C@H]2c1ccc(CO)cc1 ? inactive

Hello, I am checking results. What call was entered for C=C(COC)C(=O)CC[C@H](OC(=O)c1ccccc1-c1ccccc1C(=O)O)c1ccccc1OCCO ? inactive

Hello, I am checking results. What call was entered for CCCC[C@@H](O)C1=C(C)C[C@H]2C(=O)N(C)C(=O)[C@H]2[C@H]1CO ? inactive

Hello, I am checking results. What call was entered for O=C1c2ccccc2[C@](Cc2ccccc2I)(C(=O)O)[C@H](c2ccc(CO)cc2)N1Cc1ccccc1Cl ? inactive

Hello, I am checking results. What call was entered for C[N+](C)(C)CCCC[C@@H]1NC(=O)[C@@H]2C[C@H](C(=O)NCCCCCNC(=O)CS)[C@H](c3ccc(O)cc3)N2C1=O ? inactive

Hello, I am checking results. What call was entered for CC(C)(C)OC(=O)CC[C@]1(C(=O)NCc2ccccc2)N=C(c2ccc(OCCCO)cc2)O[C@H]1c1ccccc1N=[N+]=[N-] ? active

Hello, I am checking results. What call was entered for O=C1O[C@H](c2ccccc2)[C@H](c2ccccc2)N2[C@H]1[C@@H](C(=O)Nc1nc3ccccc3s1)[C@]1(C(=O)Nc3ccc(C#CCCO)cc31)[C@H]2c1ccccc1OCCO ? inactive
